System: E. faecium
protocol_details: AK assay 384-well format, Prestwick library screening
Assay type: cell-based, Enterococcus faecium
protocol_conditions: Enterococcus faecium, 3 h, planktonic E. faecium; 50 μM final drug concentration; […]; read-out: AK-based Prestwick library screening result, E. faecium (fold increase in extracellular AK activity)
quantity_measured: fold induction at 50 µM

Value of measured fold induction at 50 µM for the entry CN1C(=O)CC(c2ccccc2)C1=O (stereo not shown) [Phensuximide] : 0.9

Value of measured fold induction at 50 µM for the entry O=C(NCNC(=O)NC1C(=O)NC(=O)N1CO)NC1C(=O)NC(=O)N1CO (stereo not shown) : 0.9

Value of measured fold induction at 50 µM for the entry CC(C)(C)C(=O)OCOC(=O)[C@@H]1N2C(=O)[C@@H](NC(=O)[C@H](N)c3ccccc3)[C@H]2SC1(C)C : 1.1

Value of measured fold induction at 50 µM for the entry Cc1nc2n(c(=O)c1CCN1CCC(c3noc4cc(F)ccc34)CC1)CCCC2 : 1
